- Tested on: HEK-293T
- protocol-text: Multiplex assay against HEK293T
- Format: toxicity, cell-based
- condition-summary: human, 24 h, 10 µM, compound concentration 10 uM, replicate 2
value-kind: Population Normal (%)
Please give a number only; it is taken to be in %.

These recorded examples may help you get a feel for the data.
INSERT INTO results (compound, value_kind, recorded_value) VALUES
  ('Cc1ccccc1C(c1ccccc1C)N1C2CCC1CC(O)(c1ccccc1)C2 (stereo not drawn)', 'Population Normal (%)', 95),
  ('Cc1nc(N2CC[C@H](O)C2)ncc1-c1cc(C(F)(F)F)cc2[nH]ncc12', 'Population Normal (%)', 97),
  ('Cc1ccc(C)c(Oc2ccncc2C(=O)N2CCN(C3CC3)c3ccccc32)c1', 'Population Normal (%)', 91),
  ('CC(C)c1noc(N2CCC(COc3ccc(-c4ccc(S(C)(=O)=O)cc4)nc3)CC2)n1', 'Population Normal (%)', 90);

IN: Requested field: Population Normal (%). Item: C=CC(=O)Nc1ccc2[nH]c(=O)n(C3CCN(Cc4ccc(-c5nc6cc[nH]c(=O)c6cc5-c5ccccc5)cc4)CC3)c2c1
OUT: 90

IN: Endpoint output: Population Normal (%) of CCc1nn(CCCN2CCN(c3cccc(Cl)c3)CC2)c(=O)n1CCOc1ccccc1.Cl [NEFAZODONE HYDROCHLORIDE] . Value?
OUT: 89

IN: Look at this compound and give its reported Population Normal (%). COc1cc(Nc2nccc(-c3cnn4nc(OC)ccc34)n2)cc(C(F)(F)F)c1
OUT: 86

IN: Form field: reported Population Normal (%) of C=CC(=O)Nc1cccc(Sc2nc(Nc3ccc(N4CCN(C)CC4)cc3)ncc2Cl)c1
OUT: 95

###

- Test system: HEK-293T
- protocol-text: Multiplex assay against HEK293T
- Format: toxicity, cell-based
- condition-summary: human, 48 h, 1 µM, compound concentration 1 uM, replicate 1
value-kind: Population Mitochondria Different-Phenotype (%)
The reply should contain only the number, in %.

INSERT INTO results (compound, system_tested, unit_label, recorded_value) VALUES
  ('COC(=O)C1=C(C)NC(C)=C(C(=O)OCCCN2CCC(c3ccccc3)(c3ccccc3)CC2)[C@H]1c1cccc([N+](=O)[O-])c1', 'HEK-293T', '%', 99),
  ('CCc1nn(CCCN2CCN(c3cccc(Cl)c3)CC2)c(=O)n1CCOc1ccccc1.Cl [NEFAZODONE HYDROCHLORIDE]', 'HEK-293T', '%', 49);

Shifting focus to the compound that follows.
IN: Need Population Mitochondria Different-Phenotype (%) of COc1ccc(-c2ccc3ncc4c(c3c2)n(-c2ccc(N3CCNCC3)c(C(F)(F)F)c2)c(=O)n4C)cn1.O=C(O)/C=C\C(=O)O , thanks.
OUT: 100

###

- System: Fibroblast
- protocol-text: Multiplex assay against human fibroblast
- Type: toxicity, cell-based
- condition-summary: 24 h, 1 µM, compound concentration 1 uM, replicate 2
value-kind: Population Apoptotic (%)
Number plus unit, in that order.

Here's what some known entries look like.
INSERT INTO assay_data (molecule, value_kind, recorded_value) VALUES
  ('CNC(=O)Nc1ccc2c(c1)[C@@]1(CC2)OC(=O)N(CC(=O)N(Cc2ccc(F)cc2)[C@@H](C)C(F)(F)F)C1=O', 'Population Apoptotic (%)', '71%'),
  ('Cc1ccc2c(c1)c1c(n2CCc2ccc(C)nc2)CCN(C)C1 [LATREPIRDINE]', 'Population Apoptotic (%)', '55%'),
  ('CC(C)Oc1ccccc1C(=O)Nc1ccccc1C(=O)Nc1cccc(S(=O)(=O)C(F)(F)F)c1', 'Population Apoptotic (%)', '33%');

Now look at this one.
IN: Which value of Population Apoptotic (%) has been reported for Cc1cccc(CN2CCN(C(c3ccccc3)c3ccc(Cl)cc3)CC2)c1.Cl.Cl (centres undefined) in the records?
OUT: 80%

These entries and their values trace back to ChEMBL document CHEMBL4689842.
